Biological target: T1, Human CD3eg linker (human)
T1 construct: Single chain: epsilon and gamma subunits of human CD3 joined by a 29-mer linker, Flag-tag at the C-terminus; also called recombinant human CD3
T1 chain: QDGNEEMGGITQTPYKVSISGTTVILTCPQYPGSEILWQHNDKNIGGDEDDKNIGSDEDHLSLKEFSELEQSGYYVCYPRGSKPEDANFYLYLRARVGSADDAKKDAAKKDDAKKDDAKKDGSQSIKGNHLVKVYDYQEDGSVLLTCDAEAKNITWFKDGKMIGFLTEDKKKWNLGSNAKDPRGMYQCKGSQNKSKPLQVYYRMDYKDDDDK
Experiment: Biacore SPR, vs template H183/L072
metric_name: fold change of affinity (fold)
A number alone suffices; assume fold.

Look over these answered cases.
# binder, metric_name, observed
rows = [
    ("H183/L072 VH A102I (antibody, name in Kabat numbering, V domains shown) VH: QVQLVESGGGLVQPGRSLRLSCAASGFTFSNAWMHWVRQAPGKGLEWVAQIKDKGNAYAAYYAPSVKGRFTISRDDSKNSIYLQMNSLKTEDTAVYYCHYVHYASASTVLPAFGVDIWGQGTTVTVSS VL: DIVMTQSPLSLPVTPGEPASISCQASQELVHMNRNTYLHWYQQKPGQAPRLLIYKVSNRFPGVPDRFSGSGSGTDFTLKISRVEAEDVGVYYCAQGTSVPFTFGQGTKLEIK", "fold change of affinity", 0.9),
    ("H183/L072 VH W33T (antibody, name in Kabat numbering, V domains shown) VH: QVQLVESGGGLVQPGRSLRLSCAASGFTFSNATMHWVRQAPGKGLEWVAQIKDKGNAYAAYYAPSVKGRFTISRDDSKNSIYLQMNSLKTEDTAVYYCHYVHYASASTVLPAFGVDAWGQGTTVTVSS VL: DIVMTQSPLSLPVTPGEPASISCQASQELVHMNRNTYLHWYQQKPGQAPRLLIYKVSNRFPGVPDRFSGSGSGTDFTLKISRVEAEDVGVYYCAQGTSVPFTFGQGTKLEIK", "fold change of affinity", 0),
]

--- query ---
Problem: fold change of affinity lookup needed for H183/L072 VH M34K (antibody, name in Kabat numbering, V domains shown) VH: QVQLVESGGGLVQPGRSLRLSCAASGFTFSNAWKHWVRQAPGKGLEWVAQIKDKGNAYAAYYAPSVKGRFTISRDDSKNSIYLQMNSLKTEDTAVYYCHYVHYASASTVLPAFGVDAWGQGTTVTVSS VL: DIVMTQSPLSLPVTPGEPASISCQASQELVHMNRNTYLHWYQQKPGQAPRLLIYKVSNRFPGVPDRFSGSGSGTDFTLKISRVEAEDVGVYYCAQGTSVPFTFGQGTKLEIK , thanks.
Solution: 0
